System: OVCAR-4 ovarian
protocol.details: NCI-60 one-dose screen, 48 h (100 = growth as untreated, 0 = no growth, -100 = all killed)
condition.summary: 10 µM unless noted
The panel holds about 83,000 compounds, 20% with a hit somewhere; the sample as a whole holds those more often. Activity calls are given as the source filed them. How the source made its calls: active means growth percent below 10; inactive means the rest.
The following compounds are shown together with reported growth values.

| compound | growth |
| --- | --- |
| Cc1cc(N(CCNc2ccnc3cc(Cl)ccc23)Cc2ccco2)nc(Cl)n1 | -59.7% (active) |
| Cc1ccc(C)c2c1CCC2C(C)C (centres undefined) | 100% (inactive) |
| N#CC1=C(N)Oc2c(c(N)nn2-c2ccccc2)C1c1ccc(Cl)cc1 (centres undefined) | 105% (inactive) |
| O=C(NO)c1ccc(Cn2c(=O)n(-c3ccccc3)c(=O)c3ccccc32)cc1 | 18.7% (inactive) |
| Cc1ccsc1-c1ccc2c(c1)COC2(CCCN(C)C)c1ccc(F)cc1 (centres undefined) | 54.4% (inactive) |
| CC(C)(C)c1nc(-c2ccc(O)c(O)c2)cs1 | 76.2% (inactive) |
| Cn1cc(-c2csc(-c3cn(CCN)c4ccc(Br)cc34)n2)c2cccnc21 | 54.3% (inactive) |
| CC1(C)[C@@H](O)CC[C@]2(C)[C@H]3CC[C@@H]4[C@H]5[C@H](C(=O)/C=C/c6ccc(C(F)(F)F)cc6)CC[C@]5(CO)CC[C@@]4(C)[C@]3(C)CC[C@@H]12 | 38.4% (inactive) |
| COc1cc2nc(Cl)nc(Nc3cccc(C(=O)/C=C/c4ccccc4)c3)c2cc1OC | 70.6% (inactive) |
| CC1(c2ccccc2)OC1C(=O)O (centres undefined) | 112% (inactive) |
| CC(C)=CCC[C@](C)(O)[C@H]1CC[C@]2(C)[C@@H]1CC[C@@H]1[C@@]3(C)C/C(=C/c4ccc(Br)cc4)C(=O)C(C)(C)[C@@H]3CC[C@]12C | 78.5% (inactive) |
| Cc1ccc(NC2CC(=O)N(c3c(C)cc(C)cc3C)C2=O)c(C)c1 (centres undefined) | 98.6% (inactive) |
| Cn1cc(-c2csc(-c3cn(CCCN4CCCCC4)c4ccccc34)n2)c2cccnc21 | -48.2% (active) |
| CCCCCCCCNc1cccc2c1C(=O)c1ccccc1C2=O | 103% (inactive) |
| C=C(C)[C@@H]1CC[C@]2(C)[C@H](CC[C@@H]3[C@H]4[C@H]5OC[C@@]4(CCC5(C)C)CC[C@]32C)[C@@]1(C)CCCN | 70.2% (inactive) |
| O=C1C=Cc2ncccc2C1=O | 111% (inactive) |
| N=C(N)N=Nc1ccc(O)cc1 | 68.9% [100 µM] (inactive) |
| CCC1C(=O)COC1=O (centres undefined) | 105% (inactive) |
| Nc1nc(Br)nc2c1ncn2C1CC(O)C(CO)O1 (centres undefined) | 81.9% (inactive) |
| Fc1ccc(NCc2nnc(-c3ccc(Cl)cc3)o2)cc1 | 69.2% (inactive) |
| Cc1nc([P+](c2ccccc2)(c2ccccc2)c2ccccc2)c(Sc2sc(-c3ccccc3)nc2[P+](c2ccccc2)(c2ccccc2)c2ccccc2)o1 | -1.77% (active) |
| COc1ccccc1-n1cnc(N)c1C(=O)c1cc(OC)c(OC)c(OC)c1 | 65.9% (inactive) |
| CCCC1CCCCN1C(=O)OCC(C)C (centres undefined) | 113% (inactive) |
| O=C(CI)Nc1ccc(O)c2ccccc12 | 26.6% (inactive) |
| COc1cc2c3c(c4c5ccccc5[nH]c4c2c(OC)c1OC)C(=O)N(O)C3=O | 56.6% (inactive) |
| CCc1cccc(CC)c1NC(=O)c1sc2nc3c(cc2c1N)CCCC3 | 78.2% (inactive) |
| CC(=O)n1c(/C(C#N)=C/c2ccc(N(C)C)cc2)cc2ccccc21 | 76.8% (inactive) |
| CCN(CC)c1ccc(/C=C/c2cc(C)c3ccccc3n2)cc1 | 82.8% (inactive) |
| CCSc1sc(-c2ccc(C)cc2)nc1[P+](c1ccccc1)(c1ccccc1)c1ccccc1 | -4.21% (active) |
| CC1(C)CC[C@]2(CO)CC[C@]3(C)C(=CC[C@@H]4[C@@]5(C)CC[C@H](NCO)C(C)(C)[C@@H]5CC[C@]43C)[C@@H]2C1 | -32.5% (active) |
| O=c1[nH]c2c3ccncc3cc(-c3cccc(Cl)c3)c2c2cnccc12 | -8.25% (active) |
| O=C1CCCC=CC[C@H]2C=C(Cl)C(=O)C2=CC[C@H](CCCCC(F)(F)F)OC(=O)CCCC=CC[C@H]2C=C(Cl)C(=O)C2=CC[C@H](CCCCC(F)(F)F)OC(=O)CCCC=CC[C@H]2C=C(Cl)C(=O)C2=CC[C@H](CCCCC(F)(F)F)O1 | 68.7% [6.25 µM] (inactive) |
| CCC(=O)c1c(C)[nH]c(C)c1C | 123% (inactive) |
| C[Si](C)(C)Cc1ccccc1 | 113% (inactive) |
